Measured GI50 of individual entries
- Test system: BT-549
- experiment-summary: NCI tumour cell line growth inhibition, 48 h
The source made the active and inactive calls. No stated cut-off is given here; in the data, active = GI50 up to about 1.1 µM and inactive = higher. Residues, ends and D or L forms follow the SMILES beside them. *: point of attachment. Boc = CC(C)(C)OC(=O)*
property-name: GI50

>  <compound>
CC(C)(C)c1cc(C(C)(C)C)c2c(c1O)OC(=O)CS2

>  <property-name>
GI50

>  <reported-value>
8.32 µM (inactive)

$$$$
>  <compound>
Cc1n[nH]c(=O)c2c3c([nH]c12)-c1ccccc1C3

>  <property-name>
GI50

>  <reported-value>
> 100 µM (inactive)

$$$$
>  <compound>
CCOC(=O)C1(Cc2ccc(C)cc2)Cc2ccc(C)cc2C1=O (centres undefined)

>  <property-name>
GI50

>  <reported-value>
10 µM (inactive)

$$$$
>  <compound>
COc1cc2c[n+](C)c3c4cc(OC)c(OC)cc4c(OC)cc3c2cc1OC

>  <property-name>
GI50

>  <reported-value>
3.92 µM (inactive)

$$$$
>  <compound>
OC1C2CCCCN2C[C@@H](O)[C@H]1O (some centres undefined)

>  <property-name>
GI50

>  <reported-value>
> 100 µM (inactive)

$$$$
>  <compound>
Cc1nc2c(=O)n(-c3ccccc3)c(=O)n(-c3ccccc3)c2o1

>  <property-name>
GI50

>  <reported-value>
> 100 µM (inactive)

$$$$
>  <compound>
COC(=O)CN(CC(=O)NCCNC(=O)OC(C)(C)C)C1CCCCC1N(CC(=O)OC)CC(=O)OC (centres undefined)

>  <property-name>
GI50

>  <reported-value>
> 100 µM (inactive)

$$$$
>  <compound>
COC(=O)C(Cc1c[nH]c2ccccc12)NC(=O)C(Cc1c[nH]c2ccccc12)NC(=O)C(Cc1c[nH]c2ccccc12)NC(=O)C(Cc1c[nH]c2ccccc12)NC(=O)OC(C)(C)C (centres undefined) (Boc-WWWW-OMe; configuration not given here)

>  <property-name>
GI50

>  <reported-value>
17.9 µM (inactive)

$$$$
>  <compound>
O=C(O)CN1CCNCCN(CC(=O)O)CCN(CC(=O)O)CCNCC1

>  <property-name>
GI50

>  <reported-value>
> 100 µM (inactive)

$$$$

====

- Test system: SF-295
- experiment-summary: NCI tumour cell line growth inhibition, 48 h
The source made the active and inactive calls. No stated cut-off is given here; in the data, active = GI50 up to about 1.1 µM and inactive = higher. Where a SMILES comes first, the peptide text is derived from it. The star is where a group is joined. X33 = O=C(c1ccc(-c2ccc(Cl)cc2Cl)o1)*
Outcome codes: True = active, False = inactive

>  <molecule>
CNN1C(=O)c2c(N)c(C#N)c(-c3ccccc3)c(-c3ccccc3)c2C1=O

>  <class-label>
False

$$$$
>  <molecule>
COc1cc2c(cc1OC)CC(=O)c1cc(OC)c(OC)cc1/C=C\2

>  <class-label>
False

$$$$
>  <molecule>
O=C(Nc1ccc(Cl)cc1Cl)c1c/c(=N\O)c2ccc(O)cc2o1

>  <class-label>
False

$$$$
>  <molecule>
O=S1(=O)c2ccccc2N2C(c3ccccc3)=NOC2(c2ccccc2)CC1c1ccc(Br)cc1 (centres undefined)

>  <class-label>
False

$$$$
>  <molecule>
Cc1cc2nc3c(=O)[nH]c(=O)nc-3n(CC(O)C(O)C(O)CO)c2cc1N (centres undefined)

>  <class-label>
False

$$$$
>  <molecule>
O=C(c1ccccc1)C1OC12C(=O)Nc1c(Cl)cc(Cl)cc12 (centres undefined)

>  <class-label>
False

$$$$
>  <molecule>
O=[N+]([O-])c1ccc(Cl)c(CNc2ncnc3c2ncn3C2CCCCO2)c1 (centres undefined)

>  <class-label>
False

$$$$
>  <molecule>
COC(=O)[C@@H]1C[C@]2(CC=C(C)C)c3ccccc3N(S(=O)(=O)c3ccccc3)[C@@H]2N1C(=O)OC

>  <class-label>
False

$$$$
>  <molecule>
O=C1CCCN1C(=O)CS(=O)(=O)c1ccccc1

>  <class-label>
False

$$$$
>  <molecule>
COc1cc(Nc2nc3c(N)cc(C(F)(F)F)cc3nc2-c2ccccc2)cc(OC)c1OC

>  <class-label>
False

$$$$
>  <molecule>
CN(C)CCCNc1ccc2nnn3c4ccc([N+](=O)[O-])cc4c(=O)c1c23

>  <class-label>
False

$$$$
>  <molecule>
O=[N+]([O-])/C=C/c1cc2ccc3ccccc3c2[nH]1

>  <class-label>
False

$$$$
>  <molecule>
COC(=O)CC(C(C(=O)OCc1ccccc1)C(C)O)N1C(=O)OCC1c1ccccc1 (centres undefined)

>  <class-label>
False

$$$$
>  <molecule>
Cc1cccc(-c2cc(=O)c3cc(C)c(C)c(C(=O)O)c3o2)c1

>  <class-label>
False

$$$$
>  <molecule>
CCOC(=O)C1(Cc2ccc(C)cc2)Cc2ccc(C)cc2C1=O (centres undefined)

>  <class-label>
False

$$$$
>  <molecule>
[N-]=[N+]=Nc1c(N2CCOCC2)c(Cl)nc2ccccc12

>  <class-label>
False

$$$$
>  <molecule>
Nc1n[n+](-c2ccccc2)no1

>  <class-label>
False

$$$$
>  <molecule>
COc1ccc2nc3cc(Cl)ccc3c(SCC(=O)Nc3ccccc3-c3ccccc3NC(=O)CSc3c4ccc(Cl)cc4nc4ccc(OC)cc34)c2c1

>  <class-label>
False

$$$$
>  <molecule>
O=C(Nc1ccc(Cl)cc1)c1cc2c(cc1Cl)SC(NNCCO)=NS2(=O)=O

>  <class-label>
False

$$$$
>  <molecule>
CCC(C)C(NC(=O)CNC(=O)C(Cc1ccccc1)NC(=O)C1CCCN1C(=O)c1ccc(-c2ccc(Cl)cc2Cl)o1)C(=O)OC (centres undefined) (X33-PFGI-OMe; configuration not given here)

>  <class-label>
False

$$$$
>  <molecule>
C[N+]1(C)C[C@@H](O)C[C@@H]1C(=O)[O-]

>  <class-label>
False

$$$$
>  <molecule>
CNc1nnc(CCCCCCCCc2nnc(NC)o2)o1

>  <class-label>
False

$$$$
>  <molecule>
COc1cc2cccc(/N=C\c3cccc(OC)c3OC(C)C)c2cc1OC

>  <class-label>
False

$$$$
>  <molecule>
Cc1n[nH]c(=O)c2c3c([nH]c12)-c1ccccc1C3

>  <class-label>
False

$$$$
>  <molecule>
O=c1[nH]cnc2[nH]nnc12

>  <class-label>
False

$$$$
>  <molecule>
Cn1c(=O)c2[nH]c(-n3nc(-c4ccccc4)cc3N)nc2n(C)c1=O

>  <class-label>
False

$$$$
>  <molecule>
CCCCCCCCCC(=O)OCC1(CO)C/C(=C/CC(C(C)C)C(C)C)C(=O)O1 (centres undefined)

>  <class-label>
False

$$$$
>  <molecule>
Cc1cccc(/N=N/c2ccc(O)c(CN(C)C)c2)c1

>  <class-label>
False

$$$$
>  <molecule>
CN(C)/C=N\c1c(Br)cc(Br)c2nonc12

>  <class-label>
False

$$$$
>  <molecule>
COc1cc2nc(-c3cccs3)[nH]c(=O)c2cc1OC

>  <class-label>
False

$$$$
>  <molecule>
CC(=O)/C=C\C(=O)NNS(=O)(=O)c1ccc(C)cc1

>  <class-label>
False

$$$$
>  <molecule>
Cc1nc2c(=O)n(-c3ccccc3)c(=O)n(-c3ccccc3)c2o1

>  <class-label>
False

$$$$
>  <molecule>
CC1OC(OC2C(CO)OC(O[C@H]3CC[C@@]4(C)C(=CC[C@H]5[C@@H]6C[C@@H]7O[C@]8(CC[C@@H](C)CN8)[C@@H](C)[C@@H]7[C@@]6(C)CC[C@@H]54)C3)C(O)C2O)C(O)C(O)C1O (some centres undefined)

>  <class-label>
False

$$$$
>  <molecule>
Cc1c(N)nc(C(CC(N)=O)NCC(N)C(N)=O)nc1C(=O)NC(C(=O)NC(C)C(O)C(C)C(=O)NC(C(=O)NCCc1nc(-c2nc(C(=O)NCCCNCCCCN)cs2)cs1)C(C)O)C(OC1OC(CO)C(O)C(O)C1OC1OC(CO)C(O)C(OC(N)=O)C1O)c1c[nH]cn1 (centres undefined)

>  <class-label>
True

$$$$
>  <molecule>
CC(CO)(CBr)COC(=O)c1cc(Br)c(N)c(Br)c1 (centres undefined)

>  <class-label>
False

$$$$
>  <molecule>
CC1=CC(O)C(C(O)(C(F)(F)F)C(F)(F)F)C(C)(C)C1 (centres undefined)

>  <class-label>
False

$$$$
>  <molecule>
Cc1cc(C)c(C#N)c(SC(=S)NC(=O)c2ccc(Cl)cc2)n1

>  <class-label>
False

$$$$
>  <molecule>
N#Cc1nc(-c2ccccc2C(=O)O)oc1N

>  <class-label>
False

$$$$
>  <molecule>
Cc1c(-c2nc(N)c(C#N)c(N)c2C#N)c(=O)oc2ccccc12

>  <class-label>
False

$$$$
